measured_on: Phosphatidylinositol 4,5-bisphosphate 3-kinase catalytic subunit delta isoform (Homo sapiens)
Sequence (O00329 whole entry): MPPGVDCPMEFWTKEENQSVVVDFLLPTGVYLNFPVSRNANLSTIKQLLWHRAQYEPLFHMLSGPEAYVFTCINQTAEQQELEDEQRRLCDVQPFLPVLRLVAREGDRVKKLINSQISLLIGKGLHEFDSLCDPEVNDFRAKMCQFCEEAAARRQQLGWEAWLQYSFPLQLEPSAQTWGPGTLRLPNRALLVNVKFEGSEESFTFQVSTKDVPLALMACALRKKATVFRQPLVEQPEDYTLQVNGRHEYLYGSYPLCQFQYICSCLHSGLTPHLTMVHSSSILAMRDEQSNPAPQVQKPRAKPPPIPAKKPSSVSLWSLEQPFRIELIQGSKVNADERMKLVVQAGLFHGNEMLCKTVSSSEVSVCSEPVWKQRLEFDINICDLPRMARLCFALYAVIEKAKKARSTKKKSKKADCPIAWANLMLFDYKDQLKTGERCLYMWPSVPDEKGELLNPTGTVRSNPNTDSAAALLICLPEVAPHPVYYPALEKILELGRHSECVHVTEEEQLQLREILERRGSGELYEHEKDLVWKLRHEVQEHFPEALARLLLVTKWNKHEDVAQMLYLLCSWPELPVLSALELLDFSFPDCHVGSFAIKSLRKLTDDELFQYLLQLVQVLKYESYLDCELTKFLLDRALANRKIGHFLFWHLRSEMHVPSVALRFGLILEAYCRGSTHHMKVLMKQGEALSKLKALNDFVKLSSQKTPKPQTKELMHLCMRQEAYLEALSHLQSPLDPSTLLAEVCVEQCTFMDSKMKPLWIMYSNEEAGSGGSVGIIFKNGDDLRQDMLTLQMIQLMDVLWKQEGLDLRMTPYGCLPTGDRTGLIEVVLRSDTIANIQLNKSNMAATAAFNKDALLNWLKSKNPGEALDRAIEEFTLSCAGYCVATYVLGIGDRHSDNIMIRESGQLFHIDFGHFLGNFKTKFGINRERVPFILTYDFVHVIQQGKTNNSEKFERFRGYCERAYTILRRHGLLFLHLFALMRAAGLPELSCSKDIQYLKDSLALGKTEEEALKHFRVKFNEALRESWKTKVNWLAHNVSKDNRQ
test_summary: Inhibition of human recombinant PI3Kdelta using PIP2 by Kinase-Glo Plus assay
Could you please mark yes (1) for values of IC50 below 60 nM and no (0) for values at or above it?

Data request: For C[C@@H](Nc1cc(F)cc(F)c1)c1cc(C(=O)N(C)C)cc2c(=O)cc(N3CCOCC3)oc12 , is the recorded IC50 below the cut-off of 60 nM?
Data returned: yes (1)

Data request: Strictly below 60 nM in IC50? CC(Nc1cc(F)cc(F)c1)c1cc(C(=O)N(C)CCO)cc2c(=O)cc(N3CCOCC3)oc12 (racemic)
Data returned: no (0)

Data request: Please check: IC50 for Cc1cc(F)cc(NC(C)c2cc(C(=O)N(C)C)cc3c(=O)cc(N4CCOCC4)oc23)c1 (racemic) , strictly under 60 nM or not?
Data returned: no (0)

Data request: Lab note: IC50 threshold 60 nM. Does this compound come in strictly under it? CC(Nc1cccc(F)c1F)c1cc(C(=O)N(C)C)cc2c(=O)cc(N3CCOCC3)oc12 (racemic)
Data returned: no (0)

Data request: Please state whether IC50 is below 60 nM for C[C@@H](Nc1cc(F)c(F)c(F)c1)c1cc(C(=O)N(C)C)cc2c(=O)cc(N3CCOCC3)oc12
Data returned: yes (1)

Data request: Below 60 nM on IC50? Entry CC(Nc1ccc(F)c(Cl)c1)c1cc(C(=O)N(C)C)cc2c(=O)cc(N3CCOCC3)oc12 (racemic)
Data returned: no (0)

Data request: # check: IC50 < 60 nM for CC(Nc1cc(F)ccc1F)c1cc(C(=O)N(C)C)cc2c(=O)cc(N3CCOCC3)oc12 (racemic)
Data returned: no (0)

Data request: Check if IC50 falls below 60 nM for C[C@H](c1cc(C(=O)N2CCC(O)CC2)cc2c(=O)cc(N3CCOCC3)oc12)N(C)c1cc(F)cc(F)c1 .
Data returned: no (0)

The measured values listed here are drawn from ChEMBL document CHEMBL3407416.
